// values below are reported %-inhibition of EPHB3
Target: panel of more than 300 wild-type and mutant kinases (313 kinase panel) (Homo sapiens, UniProt P54753)
Sequence (P54753 34-998, change not shown): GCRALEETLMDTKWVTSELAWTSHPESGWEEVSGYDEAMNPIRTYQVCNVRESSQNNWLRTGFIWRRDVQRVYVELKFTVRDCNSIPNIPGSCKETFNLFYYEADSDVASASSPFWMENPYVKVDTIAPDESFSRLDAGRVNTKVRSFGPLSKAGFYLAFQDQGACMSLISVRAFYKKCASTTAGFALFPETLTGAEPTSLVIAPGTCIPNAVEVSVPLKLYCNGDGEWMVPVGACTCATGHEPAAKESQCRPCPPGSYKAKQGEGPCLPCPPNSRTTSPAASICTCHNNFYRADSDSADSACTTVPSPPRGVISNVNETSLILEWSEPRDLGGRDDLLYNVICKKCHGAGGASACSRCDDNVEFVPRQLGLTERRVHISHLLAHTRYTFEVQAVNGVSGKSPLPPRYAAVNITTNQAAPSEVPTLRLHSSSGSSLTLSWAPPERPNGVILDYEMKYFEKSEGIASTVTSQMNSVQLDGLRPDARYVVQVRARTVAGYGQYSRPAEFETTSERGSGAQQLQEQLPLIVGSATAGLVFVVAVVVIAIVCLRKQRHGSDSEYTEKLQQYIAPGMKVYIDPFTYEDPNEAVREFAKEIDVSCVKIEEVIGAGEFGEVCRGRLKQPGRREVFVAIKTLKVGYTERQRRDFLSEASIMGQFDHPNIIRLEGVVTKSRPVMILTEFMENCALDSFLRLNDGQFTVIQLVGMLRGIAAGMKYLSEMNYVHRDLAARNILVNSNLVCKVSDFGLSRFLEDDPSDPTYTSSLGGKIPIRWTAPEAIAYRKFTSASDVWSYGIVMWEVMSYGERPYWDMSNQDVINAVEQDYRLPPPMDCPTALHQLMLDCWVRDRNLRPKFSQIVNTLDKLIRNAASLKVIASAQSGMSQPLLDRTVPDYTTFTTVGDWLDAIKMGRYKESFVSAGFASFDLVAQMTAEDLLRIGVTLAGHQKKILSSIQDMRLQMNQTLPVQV
Test: Kinase profiling in a biochemical assay panel (mobility shift assays and ELISA), %-inhibition at 1 μM; selectivity entropy
Details: kinase EPHB3; compound at 1 μM
Provide the reading as a plain figure in %.

Reference set, count: 8
>  <compound>
C[C@@H](Oc1cc(-c2cnn(C3CCNCC3)c2)cnc1N)c1c(Cl)ccc(F)c1Cl

>  <measured.parameter>
%-inhibition of EPHB3

>  <numeric.value>
5

$$$$
>  <compound>
CNC(=O)c1cc(Oc2ccc(NC(=O)Nc3ccc(Cl)c(C(F)(F)F)c3)c(F)c2)ccn1

>  <measured.parameter>
%-inhibition of EPHB3

>  <numeric.value>
22

$$$$
>  <compound>
O=S(=O)(c1cccc2cnccc12)N1CCCNCC1

>  <measured.parameter>
%-inhibition of EPHB3

>  <numeric.value>
-4

$$$$
>  <compound>
CO[C@H]1C[C@@H]2CC[C@@H](C)[C@@](O)(O2)C(=O)C(=O)N2CCCC[C@H]2C(=O)O[C@H]([C@H](C)C[C@@H]2CC[C@@H](OCCO)[C@H](OC)C2)CC(=O)[C@H](C)/C=C(\C)[C@@H](O)[C@@H](OC)C(=O)[C@H](C)C[C@H](C)/C=C/C=C/C=C/1C

>  <measured.parameter>
%-inhibition of EPHB3

>  <numeric.value>
-5

$$$$
>  <compound>
CCCS(=O)(=O)Nc1ccc(F)c(C(=O)c2c[nH]c3ncc(-c4ccc(Cl)cc4)cc23)c1F

>  <measured.parameter>
%-inhibition of EPHB3

>  <numeric.value>
2

$$$$
>  <compound>
CS(=O)(=O)CCNCc1ccc(-c2ccc3ncnc(Nc4ccc(OCc5cccc(F)c5)c(Cl)c4)c3c2)o1

>  <measured.parameter>
%-inhibition of EPHB3

>  <numeric.value>
5

$$$$
>  <compound>
COc1cc2c(Nc3ccc(Br)cc3F)ncnc2cc1OCC1CCN(C)CC1

>  <measured.parameter>
%-inhibition of EPHB3

>  <numeric.value>
8

$$$$
>  <compound>
Cc1ccc(Nc2nccc(N(C)c3ccc4c(C)n(C)nc4c3)n2)cc1S(N)(=O)=O

>  <measured.parameter>
%-inhibition of EPHB3

>  <numeric.value>
-0.529

$$$$

Task: Which %-inhibition of EPHB3 is listed for `CO[C@H]1C[C@@H]2CC[C@@H](C)[C@@](O)(O2)C(=O)C(=O)N2CCCC[C@H]2C(=O)O[C@H]([C@H](C)C[C@@H]2CC[C@@H](OC(=O)C(C)(CO)CO)[C@H](OC)C2)CC(=O)[C@H](C)/C=C(\C)[C@@H](O)[C@@H](OC)C(=O)[C@H](C)C[C@H](C)/C=C/C=C/C=C/1C` ?
Output: -13

Task: // same read-out, input: `Cc1ccc(C(=O)Nc2ccc(CN3CCN(C)CC3)c(C(F)(F)F)c2)cc1C#Cc1cnc2cccnn12`
Output: 101

Task: // same read-out, input: `Cc1cn(-c2cc(NC(=O)c3ccc(C)c(Nc4nccc(-c5cccnc5)n4)c3)cc(C(F)(F)F)c2)cn1`
Output: 92

Task: // same read-out, input: `CC(C)(C)c1nc(-c2cccc(NS(=O)(=O)c3c(F)cccc3F)c2F)c(-c2ccnc(N)n2)s1`
Output: 3

Task: // same read-out, input: COc1cc2nccc(Oc3ccc(NC(=O)C4(C(=O)Nc5ccc(F)cc5)CC4)cc3)c2cc1OC [cabozantinib]
Output: 85
